assayInfo: A quantitative high throughput screen for small molecules that induce DNA re-replication in SW480 colon adenocarcinoma cells. Further: nearly all actives have a fitted effect of over 55% in size.
conditionsUsed: Hoechst DNA content imaging, 48 h; series mostly up to 46.1 µM
Hit rate of the full screen: of about 340,000 compounds, about 6,200 (1.8%) were called active. Not shown: some 10% with an inconclusive outcome. The call rests on the fitted dose curve; in most records, active means well fitted activation curve with a large enough effect; inconclusive means small, poorly fitted or top-dose-only effect; inactive means no such curve, though single readings can be large or run the other way. The full list was thinned out, with actives kept by preference.
A correct response names exactly one class from TRUE = active, FALSE = inactive

compound | label
Cc1cc(C)nc(N/N=C/c2ccc([N+](=O)[O-])o2)n1 | FALSE
O=C(O)c1ccc([N+](=O)[O-])cc1Sc1ccsc1 | FALSE
COc1cccc(NC(=O)c2ccc(Cn3cc([N+](=O)[O-])cn3)o2)c1 | FALSE
O=C(CSc1nc2ccccc2c(=O)n1Cc1ccc(F)cc1)NCC1CCCO1 (configuration not stated) | FALSE

IN: Write down the call the test reported for this compound. Item: `Cc1cccc(NC(=O)c2cc([N+](=O)[O-])ccc2N2CCN(C)CC2)c1`
OUT: FALSE

IN: Write down the call the test reported for this compound. Item: `O=c1oc2ccccc2cc1-c1cn(-c2ccccc2)c(=S)[nH]1`
OUT: TRUE

IN: Write down the call the test reported for this compound. Item: `COc1cc(OC)cc(-c2c(C#Cc3ccsc3)c3cc(-c4ccc(OC)cc4F)ccc3n2C)c1`
OUT: FALSE

IN: Write down the call the test reported for this compound. Item: Cc1ccc2nc3c(cc(C(=O)NCCc4ccccc4)c(=N)n3CC3CCCO3)c(=O)n2c1 (configuration not stated)
OUT: TRUE

IN: Write down the call the test reported for this compound. Item: `CN1CCN(/N=C/c2ccc(-c3ccc([N+](=O)[O-])cc3)o2)CC1`
OUT: FALSE

IN: Write down the call the test reported for this compound. Item: CC[C@]12c3[nH]c4ccc(OC)cc4c3CCN1C(=O)C(CC(=O)NCCN1CCOCC1)C[C@@H]2C(=O)N1CCN(C(=O)C2CC2)CC1 (some centres not stated)
OUT: FALSE

IN: Write down the call the test reported for this compound. Item: `O=C(O)c1ccc(S(=O)(=O)c2ccccc2)s1`
OUT: FALSE

IN: Write down the call the test reported for this compound. Item: Cc1cccn2c(=O)c3cc(C(=O)NCC4CCCO4)c(=N)n(Cc4ccc(F)cc4)c3nc12 (configuration not stated)
OUT: TRUE

IN: Write down the call the test reported for this compound. Item: `C/[N+]([O-])=C\c1ccc([N+](=O)[O-])o1`
OUT: TRUE

IN: Write down the call the test reported for this compound. Item: `Cc1cccc(NC(=O)c2ccc([N+](=O)[O-])o2)c1`
OUT: TRUE

IN: Write down the call the test reported for this compound. Item: CC1C(=O)N(Cc2ccccc2)c2ccccc2N1C(=O)c1ccccc1 (configuration not stated)
OUT: FALSE

IN: Write down the call the test reported for this compound. Item: CCOC(=O)C(CO)NC(=O)C1(NC(C)=O)CCCC1 (configuration not stated)
OUT: FALSE

IN: Write down the call the test reported for this compound. Item: O=C1NC(c2ccccc2)Cc2ccncc21 (configuration not stated)
OUT: FALSE

IN: Write down the call the test reported for this compound. Item: CC(CNC(=O)Cn1cnc2c(OCc3ccccc3)ncnc21)c1ccccc1 (configuration not stated)
OUT: FALSE

IN: Write down the call the test reported for this compound. Item: `CCOc1ccc(NC(=O)CSc2nc3ccccc3c(=O)n2Cc2cccs2)cc1`
OUT: TRUE

IN: Write down the call the test reported for this compound. Item: `Cc1ccc(CCNC(=O)c2ccc3nc4ccccc4c(=O)n3c2)cc1`
OUT: FALSE

IN: Write down the call the test reported for this compound. Item: CC1CC(C)CN(CC(=O)N2c3ccccc3CCc3ccccc32)C1 (configuration not stated)
OUT: FALSE

IN: Write down the call the test reported for this compound. Item: `S=c1[nH]c(-c2cccs2)cn1-c1ccccc1`
OUT: FALSE

Values were extracted from PubChem BioAssay AID624297.
